- TARGET_OR_TEST_SYSTEM: CFTR ΔF508 mutant (Homo sapiens, UniProt P13569, DEL508-508)
- Construct: expressed in transfected cells; host or cells: CFBE41o- cells transduced with adenoviral vectors
- Sequence (P13569 with tags, fused parts or gaps DEL508-508): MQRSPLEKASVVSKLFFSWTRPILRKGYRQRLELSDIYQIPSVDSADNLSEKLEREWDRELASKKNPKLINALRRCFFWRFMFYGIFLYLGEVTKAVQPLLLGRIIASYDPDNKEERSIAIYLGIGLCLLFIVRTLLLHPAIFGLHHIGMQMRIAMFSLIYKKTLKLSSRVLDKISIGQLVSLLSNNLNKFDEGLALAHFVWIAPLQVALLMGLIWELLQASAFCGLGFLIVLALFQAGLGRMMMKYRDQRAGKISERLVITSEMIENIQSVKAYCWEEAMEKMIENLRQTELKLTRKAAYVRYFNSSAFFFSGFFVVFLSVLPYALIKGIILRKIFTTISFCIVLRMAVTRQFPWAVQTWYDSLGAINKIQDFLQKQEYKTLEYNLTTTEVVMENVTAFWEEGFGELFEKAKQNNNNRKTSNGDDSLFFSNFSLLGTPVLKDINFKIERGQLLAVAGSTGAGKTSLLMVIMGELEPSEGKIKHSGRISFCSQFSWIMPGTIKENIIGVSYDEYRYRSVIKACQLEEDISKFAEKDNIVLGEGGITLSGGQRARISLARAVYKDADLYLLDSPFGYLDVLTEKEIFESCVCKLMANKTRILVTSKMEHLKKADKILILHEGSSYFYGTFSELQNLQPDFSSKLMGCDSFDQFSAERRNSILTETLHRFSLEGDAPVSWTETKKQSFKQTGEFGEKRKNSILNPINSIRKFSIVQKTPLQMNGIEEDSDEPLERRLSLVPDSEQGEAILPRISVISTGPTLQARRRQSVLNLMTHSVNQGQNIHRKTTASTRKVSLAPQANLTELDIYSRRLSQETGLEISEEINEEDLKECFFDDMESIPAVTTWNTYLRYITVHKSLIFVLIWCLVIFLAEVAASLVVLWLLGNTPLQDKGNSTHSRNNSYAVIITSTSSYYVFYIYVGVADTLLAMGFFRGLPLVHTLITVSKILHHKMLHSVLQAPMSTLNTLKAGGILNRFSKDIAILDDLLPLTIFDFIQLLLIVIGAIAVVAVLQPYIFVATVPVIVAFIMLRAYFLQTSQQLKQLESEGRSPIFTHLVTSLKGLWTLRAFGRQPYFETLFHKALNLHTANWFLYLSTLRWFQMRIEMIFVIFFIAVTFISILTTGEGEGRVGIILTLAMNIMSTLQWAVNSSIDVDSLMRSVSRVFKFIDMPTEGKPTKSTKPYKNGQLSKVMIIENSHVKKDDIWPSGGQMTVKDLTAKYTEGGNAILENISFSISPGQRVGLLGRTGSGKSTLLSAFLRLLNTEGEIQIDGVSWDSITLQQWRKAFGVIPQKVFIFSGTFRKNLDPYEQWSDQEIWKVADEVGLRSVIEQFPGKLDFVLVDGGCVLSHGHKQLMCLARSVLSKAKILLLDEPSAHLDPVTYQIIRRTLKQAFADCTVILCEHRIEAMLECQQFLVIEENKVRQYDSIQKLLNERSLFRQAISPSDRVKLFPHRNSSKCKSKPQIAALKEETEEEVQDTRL
- METHOD_NOTES: YFP-halide influx assay for the CFTR-ΔF508 mutation
- Assay type: cell-based
- ASSAY_CONTEXT: CFBE41o- cells expressing CFTR ΔF508 and YFP reporter; forskolin 10.67 μM
READOUT_KIND: % Activation

| COMPOUND | VALUE_OBSERVED |
| --- | --- |
| Nc1cc(S(=O)(=O)c2ccccc2OC(F)(F)F)cnc1-c1nnc(CO)o1 | 106.56% |
| Nc1cc(S(=O)(=O)c2ccc(C(F)(F)F)cc2)cnc1-c1nnc(CO)o1 | 109.69% |
| CO[C@@H](c1ccccc1)c1nnc(-c2ncc(S(=O)(=O)c3ccc(OC(F)(F)F)cc3)cc2N)o1 | 109.82% |
| Nc1cc(S(=O)(=O)c2ccc(OC(F)(F)F)cc2)cnc1-c1nnc(C[C@H]2CCCO2)o1 | 96.97% |
| Nc1cc(S(=O)(=O)c2ccc(OC(F)(F)F)cc2)cnc1-c1nnc(COC2CCOC2)s1 (centres unmarked) | 102.9% |
| Nc1cc(S(=O)(=O)c2ccc(OC(F)(F)F)cc2)cnc1-c1nc(C2CC2)no1 | 3.42% |
| CN(Cc1ccccc1)S(=O)(=O)c1cnc(-c2nnc(CO)o2)c(N)c1 | 122.9% |
| C[C@@](O)(c1nnc(-c2ncc(S(=O)(=O)c3ccc(OC(F)(F)F)cc3)cc2N)s1)C(F)(F)F | 97.45% |

---

- TARGET_OR_TEST_SYSTEM: CFTR-S549N (Homo sapiens, UniProt P13569, S549N)
- Construct: HEK293 with plasmid vectors inferred from the G551D protocol, to which the assay is called similar
- Sequence (P13569 whole entry S549N): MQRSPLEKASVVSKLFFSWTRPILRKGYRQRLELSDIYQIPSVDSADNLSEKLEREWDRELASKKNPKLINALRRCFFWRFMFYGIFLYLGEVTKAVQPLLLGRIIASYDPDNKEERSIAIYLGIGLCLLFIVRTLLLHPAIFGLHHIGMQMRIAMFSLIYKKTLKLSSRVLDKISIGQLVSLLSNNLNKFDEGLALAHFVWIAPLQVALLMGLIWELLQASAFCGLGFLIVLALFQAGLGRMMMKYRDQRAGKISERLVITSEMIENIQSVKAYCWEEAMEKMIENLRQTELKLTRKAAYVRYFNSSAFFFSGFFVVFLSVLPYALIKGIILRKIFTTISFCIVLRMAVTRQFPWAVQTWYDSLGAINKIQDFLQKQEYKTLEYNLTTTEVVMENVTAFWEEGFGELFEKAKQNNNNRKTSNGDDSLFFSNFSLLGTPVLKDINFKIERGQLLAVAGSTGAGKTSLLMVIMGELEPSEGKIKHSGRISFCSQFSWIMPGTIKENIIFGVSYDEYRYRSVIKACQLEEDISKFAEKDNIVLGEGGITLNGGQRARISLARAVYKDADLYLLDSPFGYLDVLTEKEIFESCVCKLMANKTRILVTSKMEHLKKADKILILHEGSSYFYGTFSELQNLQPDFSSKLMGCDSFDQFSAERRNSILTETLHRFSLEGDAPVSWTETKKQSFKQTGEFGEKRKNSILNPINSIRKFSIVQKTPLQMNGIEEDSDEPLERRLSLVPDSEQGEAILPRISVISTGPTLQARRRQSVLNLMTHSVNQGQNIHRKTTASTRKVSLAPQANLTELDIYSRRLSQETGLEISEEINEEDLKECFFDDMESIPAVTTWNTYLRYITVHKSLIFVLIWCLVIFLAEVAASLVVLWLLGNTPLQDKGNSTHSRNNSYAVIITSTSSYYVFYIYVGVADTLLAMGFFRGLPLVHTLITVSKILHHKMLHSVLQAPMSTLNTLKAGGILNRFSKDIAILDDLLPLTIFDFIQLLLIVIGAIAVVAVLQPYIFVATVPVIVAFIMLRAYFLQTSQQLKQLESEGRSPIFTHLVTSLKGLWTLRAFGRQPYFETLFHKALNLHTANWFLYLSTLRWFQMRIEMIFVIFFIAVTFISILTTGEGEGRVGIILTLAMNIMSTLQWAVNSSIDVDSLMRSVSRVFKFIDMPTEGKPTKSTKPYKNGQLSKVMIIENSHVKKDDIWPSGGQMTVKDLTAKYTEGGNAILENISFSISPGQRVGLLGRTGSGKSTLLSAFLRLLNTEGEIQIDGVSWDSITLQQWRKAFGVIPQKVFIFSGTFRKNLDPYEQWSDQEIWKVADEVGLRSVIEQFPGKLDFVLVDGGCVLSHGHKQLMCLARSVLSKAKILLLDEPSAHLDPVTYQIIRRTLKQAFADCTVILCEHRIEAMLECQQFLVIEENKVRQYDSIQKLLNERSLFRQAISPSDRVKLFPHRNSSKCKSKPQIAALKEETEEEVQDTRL
- METHOD_NOTES: YFP-halide influx assay for the CFTR-S549N
pEC50: −log10 of the molar value.

| COMPOUND | pEC50 |
| --- | --- |
| CC(O)(c1nnc(-c2ncc(S(=O)(=O)c3ccc(OC(F)(F)F)cc3)cc2N)o1)C(F)(F)F (centres unmarked) | 7.25 |
| Nc1cc(S(=O)(=O)c2ccc(OC(F)(F)F)cc2)cnc1-c1nnc(CO)o1 | 6.56 |

---

// values below are reported % Activation
- TARGET_OR_TEST_SYSTEM: CFTR G551D mutant (Homo sapiens, UniProt P13569, G551D)
- Construct: expressed in transfected cells; host or cells: HEK293 cells, reverse-transfected with plasmid vectors
- Sequence (P13569 whole entry G551D): as the sequence (P13569 whole entry S549N) above, with N549S, G551D counted along it
- METHOD_NOTES: YFP-halide influx assay for the CFTR-G551D mutation
- Format: cell-based
- ASSAY_CONTEXT: HEK293 cells expressing CFTR G551D and YFP reporter; forskolin 10.67 μM
READOUT_KIND: % Activation (%)

| COMPOUND | VALUE_OBSERVED |
| --- | --- |
| Nc1cc(S(=O)(=O)c2ccc(OC(F)(F)F)cc2)cnc1-c1ncc(CO)s1 [Compound 5] | 0.3 |
| Nc1cc(S(=O)(=O)c2ccc(OC(F)(F)F)cc2)cnc1-c1nnc(C(O)C(F)(F)F)o1 (stereo not shown) [Compound 4] | 34.3 |
| CC(O)(c1nnc(-c2ncc(S(=O)(=O)c3ccc(OC(F)(F)F)cc3)cc2N)o1)C(F)(F)F (stereo not shown) [Compound 3] | 49.0 |
| Nc1cc(S(=O)(=O)c2ccc(OC(F)(F)F)cc2)cnc1-c1nnc(CO)o1 [Compound 1] | 37.7 |
